# Test system: LOX IMVI melanoma
# measurement_notes: NCI tumour cell line growth inhibition, 48 h; in the data active means GI50 below about 0.43 µM; inactive means the rest
Returns: one label drawn from label 1 for active, label 0 for inactive

// known answers, use as guide
Look up the recorded call for "CC(C)(C)c1ccc(C(=O)Nc2sc3c(c2C(N)=O)CCC(=O)C3)cc1" in this test.
label 1

Look up the recorded call for "CCn1c2ccccc2c2cc(/C=C(/C#N)C(N)=O)ccc21" in this test.
label 0

Look up the recorded call for "COc1ccc(/C=N/NC(=O)Cn2c(-c3ccc(S(C)(=O)=O)cc3)nc3cc(Cl)ccc32)cc1" in this test.
label 0

Look up the recorded call for "COc1cc(/C=C/[N+](=O)[O-])cc(Br)c1OC" in this test.
label 0

Look up the recorded call for COc1cc2c(c(OC)c1OC)-c1ccc(SC)c(=O)cc1[C@@H](NC1OC(CO)C(O)C(O)C1O)CC2 (stereo not given in full) in this test.
label 1

Look up the recorded call for "O=[N+]([O-])c1cc(S(=O)(=O)Oc2ccccc2)ccc1Cl" in this test.
label 0

Look up the recorded call for CCN(CCO)CC(C)Nc1ccc([N+](=O)[O-])c2sc3ccccc3c(=O)c12 (stereo not given) in this test.
label 0

Look up the recorded call for "CCCCn1c(=O)c2c(nc3n2CCCN3CCc2ccc(OCC(=O)NCCN(CC)CC)cc2)n(CCCC)c1=O" in this test.
label 0

Look up the recorded call for "O=C(Nc1cccc(Nc2ncc(Br)c(NCCc3cnc[nH]3)n2)c1)N1CCCC1" in this test.
label 0

Would you kindly look at the next entry?
Look up the recorded call for C[C@@H]1O[C@@H](O[C@H]2CC[C@@]3(C)[C@H](CCC4[C@@H]3C(O)C[C@]3(C)[C@@H](c5ccc(=O)oc5)CC[C@]43O)C2)[C@H](O)[C@H](O)[C@H]1O (stereo not given in full) in this test.
label 1

---

# System: UACC-257 melanoma
# measurement_notes: NCI tumour cell line growth inhibition, 48 h
Quick reference for TGI among some molecules

Consider the reported TGI for these molecules:
System UACC-257 melanoma. Read-out TGI. Item "Cc1ccc2nc(NC(=O)/C(Cc3nc4ccc(Cl)cc4[nH]c3=O)=N\NC(C)(C)C)sc2c1" . Report value.
> 100 µM

System UACC-257 melanoma. Read-out TGI. Item "COC(=O)C1=C(C)N2[C@H](C(=O)O)CO[C@@]2(C)[C@H](C(=O)OC)[C@H]1c1cccc([N+](=O)[O-])c1" . Report value.
> 100 µM

Next:
System UACC-257 melanoma. Read-out TGI. Item "COC(=O)c1nc(-c2ccccc2)oc1S(=O)(=O)n1nc(C)cc1N" . Report value.
39.7 µM

System UACC-257 melanoma. Read-out TGI. Item Cn1cncc1CC1COC(=O)C1C(O)c1ccccc1 (configuration not stated) . Report value.
> 100 µM

System UACC-257 melanoma. Read-out TGI. Item Cc1ccc(/C=C2\CCCC(CN3CCCCC3)C2=O)cc1 (configuration not stated) . Report value.
4.02 µM

System UACC-257 melanoma. Read-out TGI. Item "CCC(c1c[nH]c2ccc(Br)cc12)c1c[nH]c2ccc(Br)cc12" . Report value.
23.9 µM

System UACC-257 melanoma. Read-out TGI. Item Cc1ccc(S(=O)OC2C3CC4CC(C3)CC2C4)cc1 (configuration not stated) . Report value.
> 100 µM
